- target-desc: T1, Cynomolgus monkey glycophorin A on Cynomolgus monkey red blood cells (Cynomolgus monkey)
- T1 construct: whole, on cells; also called Cyno RBC; Cyno GPA
- experiment: FACS, RBC Cy01
The entries below are paired with their reported fluorescence intensity.

binder: 6C12B8/H8 (antibody, V domains shown, mouse IgG1/k from hybridoma; also called 6C12 parental; TPP-3422) VH: RVQLQQSGAELARPGASVKMSCKASGYTFTTYTIHWVKQKTGQGLEWIGYINPSSDYTRYNPKFKDKATLTTDKSSSTAYMKLNSLASDDSAVYYCQTGTRDYWGQGTTLTVSS VL: QIVLTQSPPIMSASPGEKVTMTCSAASSVSYIYWFQQKPGTSPKLWIYSTSTLPSGVPTRFSGSGSGTSYSLTISRMEAEDAATYYCHQRNSFPFTFGSGTKLEIR
fluorescence intensity: 2570

binder: Hu6C12-24 (antibody, V domains shown, IgG format; VH.1g + Vk.1b) VH: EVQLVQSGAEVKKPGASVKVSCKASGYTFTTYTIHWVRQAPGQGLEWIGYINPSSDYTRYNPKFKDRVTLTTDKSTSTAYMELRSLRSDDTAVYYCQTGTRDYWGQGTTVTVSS VL: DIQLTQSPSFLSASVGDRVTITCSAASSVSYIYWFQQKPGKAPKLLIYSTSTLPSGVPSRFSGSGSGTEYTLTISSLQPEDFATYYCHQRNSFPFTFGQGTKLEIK
fluorescence intensity: 1660

binder: Hu6C12-13 (antibody, V domains shown, IgG format; VH.1d + Vk.1a) VH: EVQLVQSGAEVKKPGASVKVSCKASGYTFTTYTIHWVRQAPGQGLEWMGYINPSSDYTRYNPKFKDRVTLTTDTSTSTAYMELRSLRSDDTAVYYCQRGTRDYWGQGTTVTVSS VL: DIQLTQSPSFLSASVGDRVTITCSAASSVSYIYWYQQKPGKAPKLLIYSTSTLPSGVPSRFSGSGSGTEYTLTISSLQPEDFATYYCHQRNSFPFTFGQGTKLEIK
fluorescence intensity: 824

Reference source: patent US20190359687A1
